Substrate: CCCCCCCC(=O)Oc1ccc([N+](=O)[O-])cc1
Test Summary: purified protein
Format: biochemical, Dorea formicigenerans
Condition Details: 10 mM Tris-HCl pH 8.4, 2.5% Triton X-100, 40 °C
Measure: Km (µM)

protein="DfFAE (Dorea formicigenerans; W255A) (protein, E. coli T7; trimeric by SEC (117 kDa)) MNQKKECMDVHVNGLKFHVQTFGSGVPIIMIMGLGAPGDKWKHNYELLSKWFWCIVPDNRGAGLSDKPEAESYTTEQMADDIIGIMDALDIKKAHVMGVSMGGAIAQQVALKVPDRVLSLILTSTFASVSPAFKKALNLICELKEDTDPAVLKQLNLWMTYGQYTQIHHPEKIEKSIEEDAAYPYPMPVYAYKAQCGACLSHNTAGRLHELKMPVLIAAGAKDLFMNIEKTMELVHGIPQAEFYLAPEGGHVHQAEYPEPYDSVVVGFLMKHTN" numeric_value=178.2
protein="DfFAE (Dorea formicigenerans; V252A) (protein, E. coli T7; trimeric by SEC (117 kDa)) MNQKKECMDVHVNGLKFHVQTFGSGVPIIMIMGLGAPGDKWKHNYELLSKWFWCIVPDNRGAGLSDKPEAESYTTEQMADDIIGIMDALDIKKAHVMGVSMGGAIAQQVALKVPDRVLSLILTSTFASVSPAFKKALNLICELKEDTDPAVLKQLNLWMTYGQYTQIHHPEKIEKSIEEDAAYPYPMPVYAYKAQCGACLSHNTAGRLHELKMPVLIAAGAKDLFMNIEKTMELVHGIPQAEFYLAPEGGHAHQWEYPEPYDSVVVGFLMKHTN" numeric_value=99.87
protein="DfFAE (Dorea formicigenerans) (protein, E. coli T7; trimeric by SEC (117 kDa)) MNQKKECMDVHVNGLKFHVQTFGSGVPIIMIMGLGAPGDKWKHNYELLSKWFWCIVPDNRGAGLSDKPEAESYTTEQMADDIIGIMDALDIKKAHVMGVSMGGAIAQQVALKVPDRVLSLILTSTFASVSPAFKKALNLICELKEDTDPAVLKQLNLWMTYGQYTQIHHPEKIEKSIEEDAAYPYPMPVYAYKAQCGACLSHNTAGRLHELKMPVLIAAGAKDLFMNIEKTMELVHGIPQAEFYLAPEGGHVHQWEYPEPYDSVVVGFLMKHTN" numeric_value=526.2
protein="DfFAE (Dorea formicigenerans; P149A) (protein, E. coli T7; trimeric by SEC (117 kDa)) MNQKKECMDVHVNGLKFHVQTFGSGVPIIMIMGLGAPGDKWKHNYELLSKWFWCIVPDNRGAGLSDKPEAESYTTEQMADDIIGIMDALDIKKAHVMGVSMGGAIAQQVALKVPDRVLSLILTSTFASVSPAFKKALNLICELKEDTDAAVLKQLNLWMTYGQYTQIHHPEKIEKSIEEDAAYPYPMPVYAYKAQCGACLSHNTAGRLHELKMPVLIAAGAKDLFMNIEKTMELVHGIPQAEFYLAPEGGHVHQWEYPEPYDSVVVGFLMKHTN" numeric_value=428.8
